Recorded values, source patent US9833423B2.

assay: in vitro; conditions: human, Picorna-virus CC50
Recorded CC50, one value per entry.
Recorded metric: CC50

[[record]]
compound = "CCCCC(=O)Oc1cc(C(C)C)ccc1C1(NC(C)=O)C(=O)c2ccccc2C1=O"
reading = "35.2 µg/mL"

[[record]]
compound = "COc1cccc(C2C(=O)c3ccccc3C2=O)c1"
reading = "> 100 µg/mL"

[[record]]
compound = "COc1cc(NC(=O)C(C)C)c(C2(O)C(=O)c3cccc(N)c3C2=O)cc1OC (stereo not shown)"
reading = "> 100 µg/mL"

[[record]]
compound = "CCOC(=O)Oc1cc(C(C)C)ccc1C1(OC(=O)OCC)C(=O)c2cccnc2C1=O (stereo not shown)"
reading = "> 100 µg/mL"


---

test: in vitro; conditions: human, CC50
// returns -1 unless CC50 is strictly below 20 µg/mL, in which case 1

[[record]]
compound = "CC(C)c1ccc(C2(O)C(=O)c3ccccc3C2=O)c(OCc2ccccc2)c1 [Example 24]"
label_value = -1

[[record]]
compound = "CCC(=O)Oc1cc(C(C)C)ccc1C1(OC(=O)CC)C(=O)c2ccccc2C1=O [Example 21]"
label_value = 1

[[record]]
compound = "CCC(C)c1ccc(OC(C)=O)c(C2(OC(C)=O)C(=O)c3ccccc3C2=O)c1 (stereo not drawn) [Example 13]"
label_value = 1

[[record]]
compound = "COC(=O)NC1(c2ccc(C(C)C)cc2OC(=O)OC)C(=O)c2ccccc2C1=O [Example 48]"
label_value = -1

[[record]]
compound = "CC(=O)Oc1cc(-c2ccccc2)ccc1C1(OC(C)=O)C(=O)c2ccccc2C1=O [Example 8]"
label_value = 1

[[record]]
compound = "CCC(C)(C)c1ccc(OC(C)=O)c(C2(OC(C)=O)C(=O)c3ccccc3C2=O)c1 [Example 17]"
label_value = 1

[[record]]
compound = "CC(=O)c1ccc(C2(O)C(=O)c3ccccc3C2=O)c(O)c1 [Example 20]"
label_value = -1

[[record]]
compound = "CCN(CC)C(=O)Oc1cc(C(C)C)ccc1C1(OC(=O)N(CC)CC)C(=O)c2ccccc2C1=O [Example 33]"
label_value = -1

[[record]]
compound = "CCC(=O)NC1(c2ccc(C(C)C)cc2OC(=O)CC)C(=O)c2ccccc2C1=O [Example 68]"
label_value = -1

[[record]]
compound = "COc1ccc2c(c1)C(=O)C(OC(C)=O)(c1ccc(C(C)C)cc1OC(C)=O)C2=O (stereo not drawn) [Example 27]"
label_value = 1

[[record]]
compound = "COc1cc(C(C)C)ccc1C1(NC(C)=O)C(=O)c2cccc(NC(C)=O)c2C1=O (stereo not drawn) [Example 67]"
label_value = -1

[[record]]
compound = "COc1cc(C(C)C)ccc1C1(NC(=O)OC(C)C)C(=O)c2ccccc2C1=O [Example 62]"
label_value = 1

[[record]]
compound = "CCCC(=O)Oc1cc(C(C)C)ccc1C1(OC(=O)CCC)C(=O)c2ccccc2C1=O [Example 22]"
label_value = -1

[[record]]
compound = "CONC(=O)NC1(c2ccc(C(C)C)cc2OC)C(=O)c2ccccc2C1=O [Example 63]"
label_value = -1

[[record]]
compound = "CCOC(=O)NC1(c2ccc(C(C)C)cc2OC)C(=O)c2ccccc2C1=O [Example 64]"
label_value = -1

[[record]]
compound = "COc1cc(C(C)C)ccc1C1(O)C(=O)c2cccc([N+](=O)[O-])c2C1=O (stereo not drawn) [Example 38]"
label_value = -1

[[record]]
compound = "CCCc1ccc(OC(C)=O)c(C2(OC(C)=O)C(=O)c3ccccc3C2=O)c1 [Example 11]"
label_value = 1

[[record]]
compound = "CC(=O)Oc1ccc([N+](=O)[O-])cc1C1(OC(C)=O)C(=O)c2ccccc2C1=O [Example 9]"
label_value = -1

[[record]]
compound = "COc1cc(C(C)C)ccc1C1(NC(C)=O)C(=O)c2ccccc2C1=O [Example 54]"
label_value = -1

[[record]]
compound = "O=C1c2ccccc2C(=O)C1(O)c1cc2ncccc2cc1O [Example 75]"
label_value = -1

[[record]]
compound = "COc1cc(C(C)C)ccc1C1(N)C(=O)c2cccc(NC(C)=O)c2C1=O (stereo not drawn) [Example 66]"
label_value = -1

[[record]]
compound = "COc1cc(C(C)C)ccc1C1(O)C(=O)c2ccc([N+](=O)[O-])c(NC(C)=O)c2C1=O (stereo not drawn) [Example 43]"
label_value = -1

[[record]]
compound = "CC(=O)Oc1cc(C(C)C)ccc1C1(OC(C)=O)C(=O)c2cccc([N+](=O)[O-])c2C1=O (stereo not drawn) [Example 37]"
label_value = -1

[[record]]
compound = "Cc1cc(C2(O)C(=O)c3ccccc3C2=O)c(C)cc1O [Example 35]"
label_value = -1

[[record]]
compound = "CC(=O)Oc1cc(C)c(C)cc1C1(OC(C)=O)C(=O)c2ccccc2C1=O [Example 2]"
label_value = -1

[[record]]
compound = "COc1cc(C(C)C)ccc1C1(NC(=O)C2CC2)C(=O)c2ccccc2C1=O [Example 56]"
label_value = -1

[[record]]
compound = "CCc1ccc(OC(C)=O)c(C2(OC(C)=O)C(=O)c3ccccc3C2=O)c1 [Example 12]"
label_value = -1

[[record]]
compound = "CC(=O)Oc1c(C2(OC(C)=O)C(=O)c3ccccc3C2=O)ccc(Cl)c1Cl [Example 4]"
label_value = -1

[[record]]
compound = "CC(=O)Oc1cc(C)cc(C2(OC(C)=O)C(=O)c3ccccc3C2=O)c1OC(C)=O [Example 18]"
label_value = -1

[[record]]
compound = "COC1(c2ccc(C(C)C)cc2OCc2ccccc2)C(=O)c2ccccc2C1=O [Example 25]"
label_value = -1


---

This listing pairs compounds with measured melting point.
Recorded metric: melting point

[[record]]
compound = "CCCCC(=O)NC1(c2ccc(C(C)C)cc2OC(=O)CCCC)C(=O)c2ccccc2C1=O"
reading = "128 to 130 °C"

[[record]]
compound = "COc1cc(C(C)C)ccc1C1(Br)C(=O)c2cccc(NC(C)=O)c2C1=O (stereo not drawn)"
reading = "143 to 145 °C"

[[record]]
compound = "COc1cc(C(C)C)ccc1C1(NC(=O)OC(C)C)C(=O)c2ccccc2C1=O"
reading = "159 to 161 °C"

[[record]]
compound = "CC(=O)Oc1cc(C(C)(C)C)ccc1C1(OC(C)=O)C(=O)c2ccccc2C1=O"
reading = "119 to 120 °C"

[[record]]
compound = "CCOC(=O)NC1(c2ccc(C(C)C)cc2OC)C(=O)c2ccccc2C1=O"
reading = "149 to 150 °C"

[[record]]
compound = "COc1cc(C(C)C)ccc1C1(N)C(=O)c2cccc(NC(C)=O)c2C1=O (stereo not drawn)"
reading = "183 to 185 °C"


---

Reported CC50 by item:
assay: in vitro; details: human, CC50
Recorded metric: CC50 (µg/mL)

[[record]]
compound = "COC(=O)NC1(c2ccc(C(C)C)cc2OC)C(=O)c2ccccc2C1=O [Example 59]"
readout_relation = "="
reading = 53.7

[[record]]
compound = "Cc1cc(C2(O)C(=O)c3ccccc3C2=O)cc(C)c1O [Example 26]"
readout_relation = ">"
reading = 100

[[record]]
compound = "COc1cc(C(C)C)ccc1C1(O)C(=O)c2ccc(N)c(N)c2C1=O (centres unmarked) [Example 47]"
readout_relation = "="
reading = 50.9

[[record]]
compound = "CC(C)c1ccc(C2(O)Cc3ccccc3C2=O)c(O)c1 (centres unmarked) [Example 51]"
readout_relation = "="
reading = 9.34

[[record]]
compound = "CC(C)C(=O)NC1(c2ccc(C(C)C)cc2OC(=O)C(C)C)C(=O)c2ccccc2C1=O [Example 50]"
readout_relation = "="
reading = 44.3

[[record]]
compound = "CC(=O)Oc1cc(C(C)C)ccc1C1(OC(C)=O)C(=O)c2ccccc2C1=O [Example 19]"
readout_relation = "="
reading = 17.7

[[record]]
compound = "CC(=O)Oc1ccc(C)nc1C1(OC(C)=O)C(=O)c2ccccc2C1=O [Example 71]"
readout_relation = ">"
reading = 100

[[record]]
compound = "CCCCC(=O)NC1(c2ccc(C(C)C)cc2OC(=O)CCCC)C(=O)c2ccccc2C1=O [Example 49]"
readout_relation = ">"
reading = 100

[[record]]
compound = "CC(=O)Oc1cc(C)c(C)c(C)c1C1(OC(C)=O)C(=O)c2ccccc2C1=O [Example 16]"
readout_relation = "="
reading = 8.87

[[record]]
compound = "COc1cc(C(C)C)ccc1C1(O)C(=O)c2ccc(N)c(NC(C)=O)c2C1=O (centres unmarked) [Example 45]"
readout_relation = ">"
reading = 117

[[record]]
compound = "CC(C)c1ccc(C2(OC(=O)C(C)(C)C)C(=O)c3ccccc3C2=O)c(OC(=O)C(C)(C)C)c1 [Example 29]"
readout_relation = ">"
reading = 100

[[record]]
compound = "CC(=O)Oc1c(Cl)cc(Cl)cc1C1(OC(C)=O)C(=O)c2ccccc2C1=O [Example 5]"
readout_relation = "="
reading = 26

[[record]]
compound = "CC(=O)Oc1cc(C(C)C)ccc1C1(OC(C)=O)C(=O)c2cccc(N)c2C1=O (centres unmarked) [Example 36]"
readout_relation = "="
reading = 9.42

[[record]]
compound = "CCNC(=O)NC1(c2ccc(C(C)C)cc2OC)C(=O)c2ccccc2C1=O [Example 60]"
readout_relation = "="
reading = 68.9

[[record]]
compound = "CC(=O)Oc1cc(Cl)ccc1C1(OC(C)=O)C(=O)c2ccccc2C1=O [Example 3]"
readout_relation = "="
reading = 50.7

[[record]]
compound = "COc1cc(C(C)C)ccc1C1(O)C(=O)c2c(N)ccc(N)c2C1=O [Example 46]"
readout_relation = "="
reading = 64

[[record]]
compound = "COc1cc(C(C)C)ccc1C1(N=[N+]=[N-])C(=O)c2cccc([N+](=O)[O-])c2C1=O (centres unmarked) [Example 40]"
readout_relation = "="
reading = 53.2

[[record]]
compound = "CCN(CC)C(=O)Oc1cc(C(C)C)ccc1C1(O)C(=O)c2ccccc2C1=O [Example 34]"
readout_relation = "="
reading = 46.2

[[record]]
compound = "CC(=O)Oc1cc(C(C)(C)C)ccc1C1(OC(C)=O)C(=O)c2ccccc2C1=O [Example 15]"
readout_relation = "="
reading = 8.26

[[record]]
compound = "COc1cc(C(C)C)ccc1C1(NC(=O)c2ccccc2)C(=O)c2ccccc2C1=O [Example 55]"
readout_relation = ">"
reading = 117

[[record]]
compound = "C=CC(=O)Oc1cc(C(C)C)ccc1C1(OC(=O)C=C)C(=O)c2ccccc2C1=O [Example 32]"
readout_relation = "="
reading = 28.7

[[record]]
compound = "CSc1ccc(C2(O)C(=O)c3ccccc3C2=O)cc1 [Example 58]"
readout_relation = "="
reading = 47.8

[[record]]
compound = "COc1cc(C(C)C)ccc1C1(O)C(=O)c2c(NC(C)=O)ccc([N+](=O)[O-])c2C1=O (centres unmarked) [Example 42]"
readout_relation = "="
reading = 71.1

